test: Pharmacokinetics in rats after tail vein injection; assay type: in vivo, Sprague-Dawley rats; settings: male, Sprague-Dawley, rat, plasma, iv, 6 mg/kg, tail vein injection 6 mg/kg, mean ± SD, n = 6
Listing: AUC(0-inf) of selected compounds
Dear colleague, please return just the value in ng·h/mL, with no unit written.

Cc1ccc(OCCn2c(C)c(C=C3C(=O)NC(=S)NC3=O)c3ccccc32)c(C)c1 [ZLDI-8, reference compound]
85.2

### Prompt Return AUC(0-inf) for the following compound: Cc1c(C=C2C(=O)NC(=S)NC2=O)c2ccccc2n1CCOc1ccc(F)cc1
### Response 402

* * *

test system: LoVo; experiment: MTT cell viability assay; assay type: cell-based, human; conditions: Homo sapiens, LoVo colorectal cancer cells
quantity.name: pIC50
Here pIC50 is given on a logarithmic scale as minus log10 of the concentration in mol/L.

Past entries and their recorded results:
Cc1c(C=C2C(=O)NC(=S)NC2=O)c2ccccc2n1CCOc1ccc(Cl)cc1Cl
4.06
Cc1c(C=C2C(=O)NC(=S)NC2=O)c2ccccc2n1CCOc1ccc(F)cc1
5.24
Cc1c(C=C2C(=O)NC(=S)NC2=O)c2ccccc2n1CCOc1cccc(F)c1
4.38

### Prompt GET pIC50 | system: LoVo | item: Cc1c(C=C2C(=O)NC(=S)NC2=O)c2ccccc2n1CCOc1cccc2ccccc12
### Response 4.36

### Prompt GET pIC50 | system: LoVo | item: Cc1c(C=C2C(=O)NC(=O)NC2=O)c2ccccc2n1CCOc1ccc(Cl)cc1Cl
### Response 4.64
